target: Delta-type opioid receptor (Mus musculus); assay: Inhibition of delta-selective antagonist binding to opioid receptor of mouse vas dferens
Sequence (P32300 whole entry): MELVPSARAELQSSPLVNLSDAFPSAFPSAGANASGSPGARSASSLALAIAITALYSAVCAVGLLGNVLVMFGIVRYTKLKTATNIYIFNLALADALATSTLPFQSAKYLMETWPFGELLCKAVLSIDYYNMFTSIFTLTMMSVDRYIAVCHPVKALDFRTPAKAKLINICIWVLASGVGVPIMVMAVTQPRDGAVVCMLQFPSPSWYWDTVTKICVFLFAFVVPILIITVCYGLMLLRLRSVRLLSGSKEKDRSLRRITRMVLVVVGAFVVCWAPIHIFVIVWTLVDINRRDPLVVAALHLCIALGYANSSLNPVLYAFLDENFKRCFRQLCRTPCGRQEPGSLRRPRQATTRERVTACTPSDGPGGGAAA
Bridge positions count the residues as written; N and C are the ends. Square brackets hold non-standard residues; d marks the D form. Peptide text beside a SMILES is read from it. Pen = CC(C)(S)[C@H](N)C(=O)O
Listing: IC50 of selected compounds

Use the examples below as a reference point.
Note to self: IC50 recorded for CC[C@H](C)[C@@H]1NC(=O)[C@H](CCCNC(=N)N)NC(=O)[C@H](CCCNC(=N)N)NC(=O)[C@@H](NC(=O)[C@H](Cc2ccccc2)NC(=O)CNC(=O)CNC(=O)[C@@H](N)Cc2ccccc2)CSSC[C@@H](C(N)=O)NC(=O)[C@@H]2CCCN2C(=O)[C@H](CCCNC(=N)N)NC1=O (H-FGGFCRRIRPC-NH2; disulfide 5-11) was > 3 µM

Note to self: IC50 recorded for CC[C@H](C)[C@@H]1NC(=O)[C@H](CCCN=C(N)N)NC(=O)[C@H](CCCN=C(N)N)NC(=O)[C@@H](NC(=O)[C@H](Cc2ccccc2)NC(=O)CNC(=O)CNC(=O)[C@@H](N)Cc2ccc(O)cc2)CSSC[C@@H](C(=O)N[C@@H](CCCCN)C(N)=O)NC(=O)[C@H](CCCN=C(N)N)NC1=O (H-YGGFCRRIRCK-NH2; disulfide 5-10) was > 3 µM

Note to self: IC50 recorded for CC[C@H](C)[C@@H]1NC(=O)[C@H](CCCN=C(N)N)NC(=O)[C@H](CCCN=C(N)N)NC(=O)[C@@H](NC(=O)[C@H](Cc2ccccc2)NC(=O)CNC(=O)CNC(=O)[C@@H](N)Cc2ccc(O)cc2)CSSC[C@@H](C(=O)N2CCC[C@H]2C(=O)N[C@@H](CCCCN)C(N)=O)NC1=O (H-YGGFCRRICPK-NH2; disulfide 5-9) was > 3 µM

We next turn to a different compound, shown below.
Note to self: IC50 recorded for CC[C@H](C)[C@@H]1NC(=O)[C@H](CCCN=C(N)N)NC(=O)[C@H](CCCN=C(N)N)NC(=O)[C@@H](NC(=O)[C@H](Cc2ccccc2)NC(=O)CNC(=O)CNC(=O)[C@@H](N)Cc2ccc(O)cc2)C(C)(C)SSC[C@@H](C(N)=O)NC(=O)[C@@H]2CCCN2C(=O)[C@H](CCCN=C(N)N)NC1=O (H-YGGF[Pen]RRIRPC-NH2; disulfide 5-11) was > 6 µM
